Target: UniProt P00860
Sequence (P00860 whole entry): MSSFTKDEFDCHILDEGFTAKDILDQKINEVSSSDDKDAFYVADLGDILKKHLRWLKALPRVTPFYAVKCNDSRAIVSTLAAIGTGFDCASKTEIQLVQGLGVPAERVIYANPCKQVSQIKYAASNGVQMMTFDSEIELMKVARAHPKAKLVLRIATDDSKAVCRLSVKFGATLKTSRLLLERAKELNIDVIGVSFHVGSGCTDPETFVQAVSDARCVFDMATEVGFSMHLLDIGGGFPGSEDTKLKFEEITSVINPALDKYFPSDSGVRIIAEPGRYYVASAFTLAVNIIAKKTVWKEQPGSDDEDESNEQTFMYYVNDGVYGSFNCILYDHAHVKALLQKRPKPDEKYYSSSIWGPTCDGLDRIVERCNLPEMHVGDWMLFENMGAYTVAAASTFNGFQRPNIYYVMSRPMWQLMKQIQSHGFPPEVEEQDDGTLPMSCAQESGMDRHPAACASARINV
Assay: Inhibition of TPA-induced ODC activity as percentage of the average no. of papillomas / mouse in groups of control mice was determined using papilloma assay
Assay type: functional
Parameters: concentration or dose not given beside the values

compound	Control, %
CC1=C(/C=C/C(C)=C/C=C/C(C)=C/C(=O)O)C(C)(C)CC(Cc2ccccc2)C1=O (centres undefined)	38
CC1=C(/C=C/C(C)=C/C=C/C(C)=C/C(=O)O)C(C)(C)CCC1=O (stereo in doubt; 3a)	39
CC1=C(/C=C/C(C)=C/C=C/C(C)=C/C(=O)O)C(C)(C)CC(C)(C)C1=O	25
C=CCC1CC(C)(C)C(/C=C/C(C)=C/C=C/C(C)=C/C(=O)O)=C(C)C1=O (centres undefined)	47
CC1=C(/C=C/C(C)=C/C=C/C(C)=C/C(=O)Nc2ccc(O)cc2)C(C)(C)CCC1	89
CCC1CC(C)(C)C(/C=C/C(C)=C/C=C/C(C)=C/C(=O)O)=C(C)C1=O (centres undefined)	57
COC(=O)/C=C(C)/C=C/C=C(C)/C=C/C1=C(C)C(=O)C(C)(C)CC1(C)C	22
C#CCC1CC(C)(C)C(/C=C/C(C)=C/C=C/C(C)=C/C(=O)OC)=C(C)C1=O (centres undefined)	40
COC(=O)/C=C(C)/C=C/C=C(C)/C=C/C1=C(C)C(=O)C(Cc2ccccc2)CC1(C)C (centres undefined)	78
